target or test system: Peroxisome proliferator-activated receptor gamma (Homo sapiens)
Sequence (P37231 whole entry): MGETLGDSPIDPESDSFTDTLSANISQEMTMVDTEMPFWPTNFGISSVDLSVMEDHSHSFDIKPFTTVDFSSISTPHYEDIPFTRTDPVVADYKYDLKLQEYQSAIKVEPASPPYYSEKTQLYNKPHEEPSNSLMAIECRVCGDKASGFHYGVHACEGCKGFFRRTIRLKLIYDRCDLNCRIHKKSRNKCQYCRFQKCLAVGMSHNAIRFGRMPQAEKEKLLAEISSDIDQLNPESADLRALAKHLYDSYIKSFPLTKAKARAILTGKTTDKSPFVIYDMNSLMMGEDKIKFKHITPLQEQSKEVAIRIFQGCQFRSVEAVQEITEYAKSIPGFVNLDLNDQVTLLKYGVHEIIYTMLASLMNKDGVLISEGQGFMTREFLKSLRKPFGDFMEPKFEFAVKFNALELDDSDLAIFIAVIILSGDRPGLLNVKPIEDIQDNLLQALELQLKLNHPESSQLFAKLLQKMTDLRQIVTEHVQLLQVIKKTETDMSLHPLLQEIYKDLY
pEC50: −log10 of the molar value.
pEC50 vs 6: at or above is MET, below is NOT MET.

molecule=CCCc1c(OCCCCOc2cccc3c2ccn3CC(=O)O)ccc2c(C(F)(F)F)noc12 group="NOT MET"

Query: Item CCCc1c(OCCCOc2ccc3c(ccn3C(CC)C(=O)O)c2)ccc2c(C(F)(F)F)noc12 (stereo not given) with pEC50 of 6 or above?
Result: NOT MET

Query: Does the molecule CCCc1c(OCC(C)COc2cccc3c2ccn3CC(=O)O)ccc2c(C(F)(F)F)noc12 (stereo not given) have recorded pEC50 that is 6 or more?
Result: NOT MET

Query: Does pEC50 meet or surpass 6 for "CCCc1c(OCCCOc2ccc3c(ccn3CC(=O)O)c2)ccc2c(-c3ccccc3)noc12" ?
Result: MET

Query: Reported pEC50 reaches at least 6 for "CCCc1c(OCCCOc2cccc3c2ccn3CCC(=O)O)ccc2c(C(F)(F)F)noc12" ?
Result: NOT MET

Origin of values: ChEMBL document CHEMBL1140430
